Where these numbers come from: PubChem BioAssay (NCI)

- TEST_DETAILS: NCI Yeast Anticancer Drug Screen. Data for the mlh1 rad18 strain (AID 175)
- ASSAY_CONDITIONS: S. cerevisiae mlh1 rad18 strain growth inhibition; at 50.0 µM (retest, dose inferred, filed as 5.0); active compounds read high
- Procedure: Growth inhibition of yeast strains with defined genetic alterations is measured as a screen for potential anti-cancer activity. Selected strains with alterations in DNA damage repair or cell cycle control were exposed to compounds and growth inhibition was measured relative to vehicle treated controls. The strain used in this assay is mlh1 rad18
The panel holds about 79,000 compounds, 15% with a hit somewhere; the sample as a whole holds those more often.
Please enter 1 (yes) where growth inhibition is greater than or equal to 90%, and 0 (no) where it is lower.

{"COMPOUND": "CCOC(=O)CN1C(=O)S/C(=C/c2ccc([N+](=O)[O-])o2)C1=O", "ANSWER_LABEL": "1 (yes)"}
{"COMPOUND": "CCOC(=O)C1=C(C)NC(C)=C(C(=O)OCC)C1c1ccnc2ccccc12", "ANSWER_LABEL": "1 (yes)"}
{"COMPOUND": "OC(COc1ccc(Cl)cc1)CN1CCN(c2cccc(Cl)c2)CC1 (configuration not stated)", "ANSWER_LABEL": "1 (yes)"}
{"COMPOUND": "CC1CC(OC(=O)Nc2ccccc2)CC(C)(C)C1 (configuration not stated)", "ANSWER_LABEL": "0 (no)"}
{"COMPOUND": "COc1ccc(C2C3CCCC(C(c4ccc(OC)cc4)N2C)C32NC(=O)NC2=O)cc1 (configuration not stated)", "ANSWER_LABEL": "1 (yes)"}
{"COMPOUND": "Cc1cc(NC(=S)SCc2ccc(F)cc2)c([N+](=O)[O-])cc1C", "ANSWER_LABEL": "1 (yes)"}
{"COMPOUND": "CCCCCCCCCCCC(=O)OCC1CO1 (configuration not stated)", "ANSWER_LABEL": "0 (no)"}
{"COMPOUND": "CCN(CC)Cc1ccc(Nc2cc(C)nc(/N=C(\\N)Nc3ccc(Cl)c(Cl)c3)n2)cc1", "ANSWER_LABEL": "1 (yes)"}
{"COMPOUND": "CC/C=C\\C/C=C\\C/C=C\\CCCCCCCC(=O)OCC(O)CO (configuration not stated)", "ANSWER_LABEL": "0 (no)"}
{"COMPOUND": "O=S1(=O)CCN(c2ccccc2CC(c2c[nH]c3ccccc23)c2c[nH]c3ccccc23)CC1", "ANSWER_LABEL": "1 (yes)"}
{"COMPOUND": "O=[N+]([O-])/C(C(Cl)=C(Cl)Cl)=C(/Cl)SCc1ccccc1", "ANSWER_LABEL": "1 (yes)"}
{"COMPOUND": "C(=C\\c1ccc(-[n+]2nc(-c3ccccc3)nn2-c2ccccc2)cc1)/c1ccccc1", "ANSWER_LABEL": "1 (yes)"}
{"COMPOUND": "O=C(N/C(=C\\c1ccc([N+](=O)[O-])cc1)c1nc2ccccc2s1)c1ccccc1", "ANSWER_LABEL": "0 (no)"}
{"COMPOUND": "COc1ccc(I)c(C=NC2CCCCC2)c1C", "ANSWER_LABEL": "1 (yes)"}
{"COMPOUND": "Cc1ccc(SCc2ccc(Cl)cc2Cl)nn1", "ANSWER_LABEL": "0 (no)"}
{"COMPOUND": "CC1CCC2(NC1)OC1CC3[C@@H]4CC=C5C=CCC[C@]5(C)C4CC[C@]3(C)C1C2C (some centres not stated)", "ANSWER_LABEL": "1 (yes)"}
